- measurementDescription: Clearance in Sprague-Dawley rat at 1 mg/kg, iv measured upto 24 hrs by LC-MS/MS analysis
- Format: ADME, organism-based
- condition: in vivo
property: clearance
Could you write the number and then its unit?

Q: If you can, please state the reported clearance value of `NC[C@H]1CC[C@H](C(=O)O)CC1` .
Ans: 5.78 mL/min/kg

###

- measurementDescription: Half life in Sprague-Dawley rat at 2 mg/kg, IM measured upto 24 hrs by LC-MS/MS analysis
- Type: ADME, organism-based
- condition: in vivo
property: half-life
Could you write the number and then its unit?

Q: If you can, please state the reported half-life value of `Cl.O=P(O)(O)c1ccc2c(n1)CCNC2` .
Ans: 2.41 h
